# key: entry, value: pEC50
- System Tested: hNPRA (Homo sapiens)
- Sequence (P16066 33-1061): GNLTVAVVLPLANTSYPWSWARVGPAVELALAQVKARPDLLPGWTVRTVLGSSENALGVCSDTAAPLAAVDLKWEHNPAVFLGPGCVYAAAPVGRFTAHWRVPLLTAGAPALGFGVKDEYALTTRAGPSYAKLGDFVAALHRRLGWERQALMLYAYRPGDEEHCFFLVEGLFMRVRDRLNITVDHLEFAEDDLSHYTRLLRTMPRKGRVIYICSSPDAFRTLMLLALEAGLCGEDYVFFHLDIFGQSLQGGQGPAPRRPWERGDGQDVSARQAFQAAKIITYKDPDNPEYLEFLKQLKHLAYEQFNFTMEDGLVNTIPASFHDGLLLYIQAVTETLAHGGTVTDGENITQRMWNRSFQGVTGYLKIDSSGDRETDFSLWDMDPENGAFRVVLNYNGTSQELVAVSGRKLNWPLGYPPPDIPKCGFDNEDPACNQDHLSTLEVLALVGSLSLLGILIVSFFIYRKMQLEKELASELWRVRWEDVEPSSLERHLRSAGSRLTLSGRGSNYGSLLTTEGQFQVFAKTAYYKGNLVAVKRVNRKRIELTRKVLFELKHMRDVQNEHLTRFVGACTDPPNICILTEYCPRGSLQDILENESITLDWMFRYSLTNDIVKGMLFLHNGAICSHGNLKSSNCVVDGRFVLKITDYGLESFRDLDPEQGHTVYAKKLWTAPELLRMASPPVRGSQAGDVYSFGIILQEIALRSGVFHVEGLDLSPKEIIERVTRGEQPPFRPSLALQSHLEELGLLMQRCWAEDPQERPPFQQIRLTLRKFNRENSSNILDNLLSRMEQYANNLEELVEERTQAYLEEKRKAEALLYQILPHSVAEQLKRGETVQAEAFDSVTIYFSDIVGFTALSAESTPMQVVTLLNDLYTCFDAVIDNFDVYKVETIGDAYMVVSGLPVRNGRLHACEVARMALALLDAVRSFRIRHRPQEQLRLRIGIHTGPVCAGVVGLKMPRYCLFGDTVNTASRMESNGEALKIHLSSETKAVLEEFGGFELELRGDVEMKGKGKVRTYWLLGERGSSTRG
- Protocol Description: NPRA Functional Cell Assay (cGMP HTRF, NPRA HEK JumpIn stable cells)
- Test Settings: cGMP production, 1 hour at 37° C., 10-point dose response
Where a name gives a salt, the structure may show the parent alone.
Keep it numeric: pEC50 is minus log10 of the concentration in mol/L.

Recorded pEC50, per entry:
INSERT INTO results (compound, recorded_metric, measured) VALUES
  ('COC1CCN(CC[C@@H](NC(=O)c2cc3cc4c(nc3s2)CC[C@H](C(C)(C)C)C4)c2ccc(-c3ccc(=O)[nH]c3)cc2)CC1 (racemic)', 'pEC50', 5.92),
  ('CC(C)(C)[C@H]1CCc2nc3sc(C(=O)N[C@H](CCN4CCC(C(=O)O)CC4)c4ccccc4)cc3cc2C1', 'pEC50', 5.68),
  ('CC(C)(C)[C@H]1CCc2nc3sc(C(=O)N[C@H](CCN4CCC(CO)C4)c4ccccc4)cc3cc2C1 (some centres unmarked)', 'pEC50', 5.74),
  ('CC(C)(C)[C@H]1CCc2nc3sc(C(=O)N[C@H](CCNC4CCNC(=O)C4)c4ccc(-c5ccc(=O)[nH]c5)cc4)cc3cc2C1 (mixture of isomers)', 'pEC50', 6.12),
  ('CC(C)(C)[C@H]1CCc2nc3sc(C(=O)N[C@H](CCN4CCCCC4)c4ccc(-c5ccc(O)nc5)cc4)cc3cc2C1 (racemic) [Example 1]', 'pEC50', 6.63),
  ('CC(C)(C)[C@H]1CCc2nc3sc(C(=O)N[C@H](CCN4CCC(O)CC4)c4ccc(-c5ncns5)cc4)nc3cc2C1 (racemic)', 'pEC50', 6.10);

Request: # query: pEC50 of entry CC(C)(C)[C@H]1CCc2nc3sc(C(=O)N[C@H](CCN4CCC(O)CC4)c4cccc(C(=O)NCCN5CCOCC5)c4)nc3cc2C1 (racemic)
Result: 6.17

Request: Do the same for CC(C)(C)[C@H]1CCc2nc3sc(C(=O)N[C@H](CCN4CCC(O)CC4)c4ccc(-c5c[nH]nc5C#N)cc4)nc3cc2C1 (racemic) [Example 166, trifluoroacetate] please
Result: 6.21

Request: Do the same for Cn1nnnc1-c1ccc([C@@H](CCN2CCC(O)CC2)NC(=O)c2nc3cc4c(nc3s2)CC[C@H](C(C)(C)C)C4)cc1 (racemic) [Example 177, trifluoroacetate] please
Result: 5.94

Request: Do the same for CC(C)(C)[C@H]1CCc2nc3sc(C(=O)N[C@H](CCN4CCC(O)CC4)c4ccc(-c5ccnc(N)c5)cc4)nc3cc2C1 (racemic) please
Result: 6.11

Request: Do the same for CC1(O)CCN(CC[C@@H](NC(=O)c2cc3cc4c(nc3s2)CC[C@H](C(C)(C)C)C4)c2ccc(-c3ccc(=O)[nH]c3)cc2)CC1 (racemic) please
Result: 6.17

Request: Do the same for CC(C)(C)[C@H]1CCc2nc3sc(C(=O)N[C@H](CCN4CCCC5(CC5)C4)c4cccc(NS(C)(=O)=O)c4)cc3cc2C1 (racemic) please
Result: 6.09

Request: Do the same for CC(C)(C)[C@H]1CCc2nc3sc(C(=O)N[C@H](CCN4CCC(O)CC4)c4ccc(N5CCOC5=O)cc4)nc3cc2C1 (racemic) [Example 85] please
Result: 5.99

Request: Do the same for CN(C)S(=O)(=O)Nc1ccc([C@@H](CCN2CC[C@H]2CO)NC(=O)c2nc3cc4c(nc3s2)CC[C@H](C(C)(C)C)C4)cn1 (racemic) [Example 213, 2,2,2-trifluoroacetate] please
Result: 5.99

Request: Do the same for CN(C)CC[C@@H](NC(=O)c1nc2cc3c(nc2s1)CC[C@H](C(C)(C)C)C3)c1cccc(C(N)=O)c1 (racemic) please
Result: 5.74

Request: Do the same for CN(CC[C@@H](NC(=O)c1cc2cc3c(nc2s1)CC[C@H](C(C)(C)C)C3)c1ccc(-c2ccc(=O)[nH]c2)cc1)C1CCCC1 (racemic) please
Result: 6.16

Request: Do the same for CC(C)(C)[C@H]1CCc2nc3sc(C(=O)N[C@H](CCN4CCC(C(=O)O)CC4)c4ccc(N5CC(=O)NC5=O)nc4)nc3cc2C1 please
Result: 6.20

Request: Do the same for CNCC[C@@H](NC(=O)c1cc2cc3c(nc2s1)CC[C@H](C(C)(C)C)C3)c1ccc(-c2ccc(=O)[nH]c2)cc1 (racemic) please
Result: 6.18

Request: Do the same for CC(C)(C)[C@H]1CCc2nc3sc(C(=O)N[C@H](CCN4CCCCC4)c4ccc(-c5csc(C(=O)O)c5)cc4)cc3cc2C1 (racemic) please
Result: 6.06

Request: Do the same for CC(C)[C@]1(F)CCc2nc3sc(C(=O)N[C@H](CCN4CCC(C(=O)O)CC4)c4ccc(-c5ccnnc5)nc4)nc3cc2C1 please
Result: 5.92

Request: Do the same for CN(C)CC[C@@H](NC(=O)c1nc2cc3c(nc2s1)CC[C@H](C(C)(C)C)C3)c1cccc(C(=O)N2CC(N)C2)c1 (racemic) please
Result: 6.25

Request: Do the same for CC(C)(C)[C@H]1CCc2nc3sc(C(=O)N[C@H](CCN4CCC(O)CC4)c4ccc(-c5csc(C(=O)O)c5)nc4)nc3cc2C1 (racemic) [Example 197, 2,2,2-trifluoroacetate] please
Result: 6.25

Request: Do the same for CC(C)CN(C)CC[C@@H](NC(=O)c1nc2cc3c(nc2s1)CC[C@H](C(C)(C)C)C3)c1ccc(NS(=O)(=O)N(C)C)nc1 (racemic) please
Result: 6.01
